The values you see were collected from ChEMBL document CHEMBL1143671.

I'd be grateful if you could share measured IC50 for these entries.
assay: Inhibition of Bacillus subtilis NAD synthetase in presence of 0.01% Triton X-100 by fluorescence based assay
One number for each entry, in µM.

[[record]]
smiles_string = "C[N+](C)(C)[C@@H](Cc1ccccc1)C(=O)NCCCCCCCCOc1ccc(OCc2ccccc2)cc1"
endpoint_value = 104


As a next step, examine the compound that follows.
Enquiry: What value of IC50 has been recorded for this entry: C[N+](C)(C)[C@@H](Cc1ccccc1)C(=O)OCCCCCCCCOc1ccc(OCc2ccccc2)cc1
Return: 37
